System: Shigella sonnei
Assay: Disc diffusion, zones of inhibition in culture medium
Type: cell-based
Conditions: G = Shigella sonnei, average of four repetitions
observable: Zones of inhibition (mm)

[
  {
    "compound": "COC(=O)[C@@]1(O)CC(=O)O[C@@H]1C(=O)O",
    "measured.value": 10
  },
  {
    "compound": "CCOC(=O)C[C@](O)(C(=O)OCC)[C@@H](O)C(=O)OCC [Compound 6, tri-ethyl ester of hydroxycitric acid]",
    "measured.value": 5
  },
  {
    "compound": "O=C1C[C@](O)(C(=O)O)[C@@H](C(=O)O)O1",
    "measured.value": 10
  },
  {
    "compound": "COC(=O)[C@H]1OC(=O)C[C@]1(O)C(=O)OC",
    "measured.value": 8
  },
  {
    "compound": "CCOC(=O)[C@@]1(O)CC(=O)O[C@@H]1C(=O)O",
    "measured.value": 6
  },
  {
    "compound": "CCOC(=O)[C@H]1OC(=O)C[C@]1(O)C(=O)OCC",
    "measured.value": 6
  }
]

====

Test system: Shigella flexneri
Assay: Disc diffusion, zones of inhibition in culture medium
Assay type: cell-based
Conditions: H = Shigella flexneri, average of four repetitions
We begin with a simple list: items and their reported Zones of inhibition.

[
  {
    "molecule": "COC(=O)[C@H]1OC(=O)C[C@]1(O)C(=O)OC [Compound 3, di-ester methyl of hibiscus acid]",
    "Zones of inhibition, mm": 8
  },
  {
    "molecule": "O=C1C[C@](O)(C(=O)O)[C@@H](C(=O)O)O1 [Compound 1, hibiscus acid]",
    "Zones of inhibition, mm": 10
  },
  {
    "molecule": "CCOC(=O)[C@H]1OC(=O)C[C@]1(O)C(=O)OCC [Compound 5, di-ester ethyl of hibiscus acid]",
    "Zones of inhibition, mm": 6
  },
  {
    "molecule": "COC(=O)[C@@]1(O)CC(=O)O[C@@H]1C(=O)O [Compound 2, mono ester methyl of hibiscus acid]",
    "Zones of inhibition, mm": 10
  },
  {
    "molecule": "CCOC(=O)C[C@](O)(C(=O)OCC)[C@@H](O)C(=O)OCC [Compound 6, tri-ethyl ester of hydroxycitric acid]",
    "Zones of inhibition, mm": 5
  },
  {
    "molecule": "CCOC(=O)[C@@]1(O)CC(=O)O[C@@H]1C(=O)O [Compound 4, mono ester ethyl of hibiscus acid]",
    "Zones of inhibition, mm": 6
  }
]

====

Listed here are compounds together with their documented Zones of inhibition.
Tested on: Staphylococcus aureus
Experiment: Disc diffusion, zones of inhibition in culture medium
Assay type: cell-based
Conditions: K = Staphylococcus aureus, average of four repetitions

[
  {
    "compound": "CCOC(=O)[C@H]1OC(=O)C[C@]1(O)C(=O)OCC",
    "Zones of inhibition (mm)": 6
  },
  {
    "compound": "CCOC(=O)C[C@](O)(C(=O)OCC)[C@@H](O)C(=O)OCC [Compound 6, tri-ethyl ester of hydroxycitric acid]",
    "Zones of inhibition (mm)": 5
  },
  {
    "compound": "O=C1C[C@](O)(C(=O)O)[C@@H](C(=O)O)O1",
    "Zones of inhibition (mm)": 10
  },
  {
    "compound": "COC(=O)[C@H]1OC(=O)C[C@]1(O)C(=O)OC",
    "Zones of inhibition (mm)": 8
  },
  {
    "compound": "CCOC(=O)[C@@]1(O)CC(=O)O[C@@H]1C(=O)O",
    "Zones of inhibition (mm)": 6
  },
  {
    "compound": "COC(=O)[C@@]1(O)CC(=O)O[C@@H]1C(=O)O",
    "Zones of inhibition (mm)": 10
  }
]
